# TGT: T1, purified human monomeric 4-1BB (human, UniProt Q07011 24-186)
# T1 construct: the assay used the 4-1BB part released by Factor Xa with the Fc removed; also called h4-1BB; human 4-1BB
# EXPERIMENT_SUMMARY: SPR, mean n=3;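 also: antibodies captured on anti-human Fc chip, 4-1BB injected as five-point two-fold series from 40 nM by single-cycle kinetics at 25 °C, sensorgrams fitted to 1:1 Langmuir model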
Listed below: pKd values for each entry.
API: returns pKd as number; meaning -log10 of concentration in mol/L.

Known results for binders:
v28711 (antibody, human IgG1, kappa, L234A L235A, V domains shown, also called humanized 5G8 H4L2) VH: QVQLQESGPGLVKPSETLSITCTVSGFSLISYGVHWVRQPPGKGLEWLGVIWSGGSTDYNPSLKSRVTISKDNSKNQVSFKLSSLTAADTAIYYCARNPLTATVMDYWGQGTLVTVSS VL: DIQMTQSPSSLSASVGDRVTITCRASQNVGTNVAWYQQKPGKAPKALIYSASYRDSGVPSRFSGSGSGTDFTLTISSLQPEDFATYYCQQYNSYPLTFGGGTKVEIKR; 6.64
v28701 (antibody, human IgG1, kappa, L234A L235A, V domains shown, also called humanized 5G8 H2L3) VH: QVQLQESGPGLVKPSETLSLTCTVSGFSLISYGVHWVRQPPGKGLEWLGVIWSGGSTDYNPSLKSRVTISKDTSKNQFSLKLSSVTAADTAVYYCARNPLTATVMDYWGQGTLVTVSS VL: DIQMTQSPSSLSASVGDRVTVTCRASQNVGTNVAWYQQKPGKAPKALIYSASYRDSGVPSRFSGSGSGTDFTLTISSVQPEDFATYYCQQYNSYPLTFGGGTKLEIKR; 6.21
v28691 (antibody, human IgG1, kappa, L234A L235A, V domains shown, also called humanized 1G1 H3L1) VH: EVQLVESGGGLVQPGGSLRLSCAASGFTFSEFGMHWVRQAPGKGLEWVAYISSGGSTIYYADSVKGRFTISRDNAKNSLYLQMNSLRAEDTAMYYCARDWVDYWGQGTLLTVSS VL: EIVLTQSPATLSLSPGERATLSCKASENVGSYVSWYQQKPGQAPRLLIYGASNRYTGIPARFSGSGSGTDFTLTISSLEPEDFAVYYCGQSYSYPLTFGGGTKVEIKR; 7.27

Recorded pKd (binder v28694 (antibody, human IgG1, kappa, L234A L235A, V domains shown, also called humanized 1G1 H3L4) VH: EVQLVESGGGLVQPGGSLRLSCAASGFTFSEFGMHWVRQAPGKGLEWVAYISSGGSTIYYADSVKGRFTISRDNAKNSLYLQMNSLRAEDTAMYYCARDWVDYWGQGTLLTVSS VL: EIVMTQSPATLSLSPGERVTLSCKASENVGSYVSWYQQKPGQAPRLLIYGASNRYTGVPARFSGSGSGTDFTLTISSVEPEDLAVYYCGQSYSYPLTFGGGTKLELKR ): 7.46

Recorded pKd (binder v28726 (antibody, human IgG1, kappa, L234A L235A, V domains shown, also called humanized 1C8 H7L3) VH: EVQLVESGGGLIQPGGSLRLSCAVSGFSLTTYAISWVRQAPGKGLEWLGIIWPGGGTNYADSVKGRFTISKDNSKNTLYLQMNSLRAEDTAVYYCARGAGTWYFDVWGQGTLVTVSS VL: DIQMTQSPSSLSASVGDRVTITCSASQGISNYLNWYQQKPGKTVKLLIYYTSSLHSGVPSRFSGSGSGTDYTLTISSLQPEDIATYYCQQYSKFPWTFGQGTKLEIKR ): 6.12

Recorded pKd (binder v28689 (antibody, human IgG1, kappa, L234A L235A, V domains shown, also called humanized 1G1 H2L3) VH: EVQLVESGGGLVQPGGSLRLSCAASGFTFSEFGMHWVRQAPGKGLEWVAYISSGGSTIYYADSVKGRFTISRDNAKNSLYLQMNSLRAEDTAVYYCARDWVDYWGQGTLLTVSS VL: EIVMTQSPATLSLSPGERVTLSCKASENVGSYVSWYQQKPGQAPRLLIYGASNRYTGVPARFSGSGSGTDFTLTISSVEPEDFAVYYCGQSYSYPLTFGGGTKLELKR ): 7.23

Recorded pKd (binder v28730 (antibody, human IgG1, kappa, L234A L235A, V domains shown, also called humanized 1C8 H8L3) VH: EVQLVESGGGLIQPGGSLRISCAVSGFSLTTYAISWVRQAPGKGLEWLGIIWPGGGTNYADSLKGRLTISKDNSKNTVYLQMNSLRTEDTAVYYCARGAGTWYFDVWGQGTLVTVSS VL: DIQMTQSPSSLSASVGDRVTITCSASQGISNYLNWYQQKPGKTVKLLIYYTSSLHSGVPSRFSGSGSGTDYTLTISSLQPEDIATYYCQQYSKFPWTFGQGTKLEIKR ): 6.12

Recorded pKd (binder v28728 (antibody, human IgG1, kappa, L234A L235A, V domains shown, also called humanized 1C8 H8L2) VH: EVQLVESGGGLIQPGGSLRISCAVSGFSLTTYAISWVRQAPGKGLEWLGIIWPGGGTNYADSLKGRLTISKDNSKNTVYLQMNSLRTEDTAVYYCARGAGTWYFDVWGQGTLVTVSS VL: DIQMTQSPSSLSASVGDRVTITCSASQGISNYLNWYQQKPGKAPKLLIYYTSSLHSGVPSRFSGSGSGTDYTLTISSLQPEDIATYYCQQYSKFPWTFGQGTKLEIKR ): 5.85

Recorded pKd (binder v28704 (antibody, human IgG1, kappa, L234A L235A, V domains shown, also called humanized 5G8 H3L2) VH: QVQLQESGPGLVKPSETLSITCTVSGFSLISYGVHWVRQPPGKGLEWLGVIWSGGSTDYNPSLKSRVTISKDTSKNQVSFKLSSLTAADTAIYYCARNPLTATVMDYWGQGTLVTVSS VL: DIQMTQSPSSLSASVGDRVTITCRASQNVGTNVAWYQQKPGKAPKALIYSASYRDSGVPSRFSGSGSGTDFTLTISSLQPEDFATYYCQQYNSYPLTFGGGTKVEIKR ): 6.75

Taken from patent US20230052369A1.
